- System: AncSZ
- method.summary: phosphorylation enrichment, bacterial display (enrichment ratio); higher = better substrate or ligand; peptides without Tyr show the background
Threshold check on phosphorylation enrichment: at or above 1 gives t, strictly below gives f.

INSERT INTO assay_data (seq_string, class_name) VALUES
  ('QNTADYFDLFG [PTPN11_Y62_G60A_YF]', 't'),
  ('DESEDCRDTVV [CNNM3_Y456_Y456C]', 't'),
  ('AQAERYDDMAA [YWHAG_Y20_E15A]', 'f'),
  ('HESEIYGKVCF [CSRP3_Y57_C58G_YF]', 't'),
  ('DPNQQYYIAMD [TBX15_Y159_H156N]', 't'),
  ('FDRREYSRFEK [ITGB7_Y758_YF]', 'f');

---

Listed here are sequences together with their documented phosphorylation enrichment.
- System: c-Abl (mouse)
- method.summary: phosphorylation enrichment, bacterial display (enrichment ratio); higher = better substrate or ligand; peptides without Tyr show the background
measured.property: phosphorylation enrichment

INSERT INTO measurements (seq_string, assay_system, measured_property, meas_value) VALUES
  ('DVMDLYKTLRG [NR3C1_Y30_F29L]', 'c-Abl (mouse)', 'phosphorylation enrichment', 0.521),
  ('LEITWYPFDME [RIPOR2_Y316_V320M]', 'c-Abl (mouse)', 'phosphorylation enrichment', 1.32),
  ('HNVPICEGFAL [ACTC1_Y168_Y168C_YF]', 'c-Abl (mouse)', 'phosphorylation enrichment', 1.06),
  ('FLRTGYSIPFG [TGM1_Y370_V372I_YF]', 'c-Abl (mouse)', 'phosphorylation enrichment', 0.775),
  ('SVTYTYSPALN [TP53_Y126_C124Y]', 'c-Abl (mouse)', 'phosphorylation enrichment', 1.78),
  ('KDQGGYAMHQD [MAPT_Y29_T30A]', 'c-Abl (mouse)', 'phosphorylation enrichment', 0.557);

---

Listed here are sequences together with their documented phosphorylation enrichment.
- assay.system: EPHB1 (UniProt P54762)
- Sequence (P54762 whole entry, looked up): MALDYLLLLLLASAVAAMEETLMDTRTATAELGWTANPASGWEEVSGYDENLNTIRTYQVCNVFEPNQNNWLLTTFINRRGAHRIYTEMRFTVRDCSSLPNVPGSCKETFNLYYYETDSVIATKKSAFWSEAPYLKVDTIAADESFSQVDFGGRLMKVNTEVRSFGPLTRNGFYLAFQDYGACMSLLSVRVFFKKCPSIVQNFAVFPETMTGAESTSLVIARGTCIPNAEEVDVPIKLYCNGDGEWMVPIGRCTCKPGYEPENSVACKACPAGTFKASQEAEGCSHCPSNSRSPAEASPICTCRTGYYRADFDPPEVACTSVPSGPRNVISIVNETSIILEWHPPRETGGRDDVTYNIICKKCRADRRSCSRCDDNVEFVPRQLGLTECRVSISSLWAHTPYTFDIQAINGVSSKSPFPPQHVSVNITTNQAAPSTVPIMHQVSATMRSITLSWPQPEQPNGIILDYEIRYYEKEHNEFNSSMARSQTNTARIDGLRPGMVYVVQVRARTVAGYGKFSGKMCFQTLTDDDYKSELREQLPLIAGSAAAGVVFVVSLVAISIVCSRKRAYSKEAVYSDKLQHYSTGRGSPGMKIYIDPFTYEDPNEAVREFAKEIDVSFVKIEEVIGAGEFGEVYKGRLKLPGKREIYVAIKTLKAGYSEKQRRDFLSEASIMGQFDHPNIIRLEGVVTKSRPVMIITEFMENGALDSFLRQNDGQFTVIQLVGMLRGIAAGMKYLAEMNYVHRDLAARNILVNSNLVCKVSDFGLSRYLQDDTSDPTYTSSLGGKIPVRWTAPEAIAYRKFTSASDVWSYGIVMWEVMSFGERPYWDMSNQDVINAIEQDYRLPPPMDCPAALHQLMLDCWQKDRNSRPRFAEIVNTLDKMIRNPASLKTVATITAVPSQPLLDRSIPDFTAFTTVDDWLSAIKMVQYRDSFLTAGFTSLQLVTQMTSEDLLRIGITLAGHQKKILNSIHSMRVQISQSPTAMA
- method.summary: phosphorylation enrichment, bacterial display (enrichment ratio); higher = better substrate or ligand; peptides without Tyr show the background
measured.property: phosphorylation enrichment

INSERT INTO measurements (seq_string, meas_value) VALUES
  ('LEVETYRRLLD [KRT12_Y429_I426V]', 0.491),
  ('TFGQVYKGPHV [TNIK_Y40_R43P_YF]', 0.403),
  ('CEAMEYLESKQ [BTK_Y511]', 0.882),
  ('FFIMMYTGSSV [DNAJC13_Y1131_N1135S]', 0.62),
  ('SAASSYSFSDL [EMD_Y59]', 0.508),
  ('LLIMEYAKFGS [RET_Y806_V804M_YF]', 1.07),
  ('YLENYYDLEKD [MMP3_Y42_K45E]', 5.81),
  ('ASNFNYFYHRE [KCNA1_Y413_V408A]', 0.582),
  ('YEEDSYSHVMA [FDPS_Y388_I391V]', 0.59),
  ('IFGEEYEEQPR [ZMYM2_Y1033_V1028I]', 0.663),
  ('ADLTEYLSTHY [UQCRC1_Y219]', 0.58),
  ('TENAGYYFRIS', 0.588),
  ('SSSPTYPDLPF [GLI3_Y168]', 0.634),
  ('ECKEAYHEGEC [PRKN_Y372]', 0.524),
  ('IVAREYYSEAD [CAMK2A_Y106]', 0.557),
  ('GKTQQYDCKWF [BCR_Y751_YF]', 0.596),
  ('PRLMLYNPTTY [EGFR_Y270_P266R]', 0.889),
  ('AAAAMYTFLPD [MYORG_Y36]', 2.82),
  ('VDSLRYIYPKL [EIF2B3_Y92_A87V]', 0.561),
  ('SDGHEYIYVDP [PDGFRB_Y579]', 2.17);

---

- assay.system: EPHB2 (UniProt P29323)
- Sequence (P29323 whole entry, looked up): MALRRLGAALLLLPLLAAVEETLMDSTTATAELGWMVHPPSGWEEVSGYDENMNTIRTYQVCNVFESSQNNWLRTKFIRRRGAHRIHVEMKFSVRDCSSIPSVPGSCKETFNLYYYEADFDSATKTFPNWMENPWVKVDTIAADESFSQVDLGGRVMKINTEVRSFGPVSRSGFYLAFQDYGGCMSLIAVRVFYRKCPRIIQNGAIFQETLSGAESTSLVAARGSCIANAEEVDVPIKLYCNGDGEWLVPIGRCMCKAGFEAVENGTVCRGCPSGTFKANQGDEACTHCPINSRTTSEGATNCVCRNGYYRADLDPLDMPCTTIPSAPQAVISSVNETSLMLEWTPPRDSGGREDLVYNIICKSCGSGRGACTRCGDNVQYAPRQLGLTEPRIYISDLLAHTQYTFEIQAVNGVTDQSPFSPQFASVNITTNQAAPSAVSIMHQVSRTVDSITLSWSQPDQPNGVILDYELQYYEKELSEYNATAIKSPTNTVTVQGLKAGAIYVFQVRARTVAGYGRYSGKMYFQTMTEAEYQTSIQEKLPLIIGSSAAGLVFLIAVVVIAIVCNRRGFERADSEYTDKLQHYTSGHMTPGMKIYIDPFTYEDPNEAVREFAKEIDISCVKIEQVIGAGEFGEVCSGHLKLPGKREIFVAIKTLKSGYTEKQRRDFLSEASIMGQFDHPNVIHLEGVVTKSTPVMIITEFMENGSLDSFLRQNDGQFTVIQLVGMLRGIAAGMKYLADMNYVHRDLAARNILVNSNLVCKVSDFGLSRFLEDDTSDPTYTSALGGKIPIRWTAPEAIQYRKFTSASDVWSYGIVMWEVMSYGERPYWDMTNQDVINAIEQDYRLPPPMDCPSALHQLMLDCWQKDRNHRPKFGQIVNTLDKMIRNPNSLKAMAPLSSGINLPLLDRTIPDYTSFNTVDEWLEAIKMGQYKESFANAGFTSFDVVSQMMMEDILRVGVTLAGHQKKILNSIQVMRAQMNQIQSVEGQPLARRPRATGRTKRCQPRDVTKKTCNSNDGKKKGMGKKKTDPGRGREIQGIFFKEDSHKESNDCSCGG
- method.summary: phosphorylation enrichment, bacterial display (enrichment ratio); higher = better substrate or ligand; peptides without Tyr show the background
measured.property: phosphorylation enrichment

INSERT INTO assay_data (seq_string, measured_property, meas_value) VALUES
  ('QGGRRYMMIVD [GAA_Y438]', 'phosphorylation enrichment', 0.508),
  ('SNYRAYATEPH [TNNI3_Y29]', 'phosphorylation enrichment', 0.452),
  ('TDGNGYISFNE [LCP1_Y28]', 'phosphorylation enrichment', 0.485),
  ('TLNHQYDYTFH [CSNK1A1_Y292_D297H]', 'phosphorylation enrichment', 0.873),
  ('SCPANYFAFKI [FAM3D_Y65_P60S]', 'phosphorylation enrichment', 2.09),
  ('DVRQEYSGMIL [PLXND1_Y616_P617S]', 'phosphorylation enrichment', 0.531),
  ('KHCEDYVCSYN [DSC1_Y846]', 'phosphorylation enrichment', 0.578),
  ('LEITWYPFDME [RIPOR2_Y316_V320M]', 'phosphorylation enrichment', 0.792),
  ('KTTILHKLKLG [ARF1_Y35_Y35H]', 'phosphorylation enrichment', 0.509),
  ('ADYPDCKYRPR [SOX11_Y116_Y116C]', 'phosphorylation enrichment', 0.51);

---

- assay.system: FGFR3 (UniProt P22607)
- Sequence (P22607 whole entry, looked up): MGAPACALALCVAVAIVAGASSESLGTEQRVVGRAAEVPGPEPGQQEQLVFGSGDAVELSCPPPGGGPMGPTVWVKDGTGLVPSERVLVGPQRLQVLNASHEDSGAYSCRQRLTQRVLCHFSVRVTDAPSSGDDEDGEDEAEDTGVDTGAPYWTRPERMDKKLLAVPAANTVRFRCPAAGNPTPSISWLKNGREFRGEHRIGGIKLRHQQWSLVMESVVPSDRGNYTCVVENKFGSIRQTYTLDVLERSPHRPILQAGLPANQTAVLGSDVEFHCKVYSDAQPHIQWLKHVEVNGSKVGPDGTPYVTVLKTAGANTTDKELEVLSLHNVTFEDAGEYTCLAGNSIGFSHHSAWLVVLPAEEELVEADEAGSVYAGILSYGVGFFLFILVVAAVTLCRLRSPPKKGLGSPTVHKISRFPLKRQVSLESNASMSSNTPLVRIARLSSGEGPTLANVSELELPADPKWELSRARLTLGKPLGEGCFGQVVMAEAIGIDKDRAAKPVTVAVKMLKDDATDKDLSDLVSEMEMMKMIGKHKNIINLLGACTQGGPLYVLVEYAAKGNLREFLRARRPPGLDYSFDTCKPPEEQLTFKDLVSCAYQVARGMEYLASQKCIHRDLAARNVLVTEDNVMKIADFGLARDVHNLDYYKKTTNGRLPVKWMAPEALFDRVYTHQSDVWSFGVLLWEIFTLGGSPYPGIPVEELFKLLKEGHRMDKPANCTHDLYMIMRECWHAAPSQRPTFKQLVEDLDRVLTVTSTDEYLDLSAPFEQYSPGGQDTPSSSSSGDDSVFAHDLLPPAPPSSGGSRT
- method.summary: phosphorylation enrichment, bacterial display (enrichment ratio); higher = better substrate or ligand; peptides without Tyr show the background
Listed here are sequences together with their documented phosphorylation enrichment.
measured.property: phosphorylation enrichment

INSERT INTO measurements (seq_string, assay_system, meas_value) VALUES
  ('LWQSIYNLDAE [TNNT2_Y251_E254D]', 'FGFR3 (UniProt P22607)', 0.784),
  ('RVKTPYSLKRW [BMPR2_Y979]', 'FGFR3 (UniProt P22607)', 0.931),
  ('ETRWNYHFEVV [GCNT3_Y267_K266N]', 'FGFR3 (UniProt P22607)', 0.893),
  ('TVEDHDYEGGI [TKT_Y563_Y563D]', 'FGFR3 (UniProt P22607)', 0.727),
  ('SDVCMYRKNIY [SYNE2_Y570]', 'FGFR3 (UniProt P22607)', 0.681),
  ('SNYRAYATEPH [TNNI3_Y29]', 'FGFR3 (UniProt P22607)', 0.447);

---

Listed here are sequences together with their documented SH2 binding enrichment.
- assay.system: Grb2 SH2 (UniProt P62993)
- Sequence (P62993 whole entry, looked up): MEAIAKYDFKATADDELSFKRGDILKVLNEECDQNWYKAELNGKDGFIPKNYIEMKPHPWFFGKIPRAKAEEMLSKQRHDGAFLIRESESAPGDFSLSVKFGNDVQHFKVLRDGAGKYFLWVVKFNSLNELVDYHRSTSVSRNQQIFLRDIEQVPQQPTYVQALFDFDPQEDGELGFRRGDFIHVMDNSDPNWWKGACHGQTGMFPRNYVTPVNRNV
- method.summary: SH2 binding enrichment of the phosphorylated peptide, bacterial display (enrichment ratio); higher = better substrate or ligand; peptides without Tyr show the background
measured.property: SH2 binding enrichment

INSERT INTO assay_data (seq_string, meas_value) VALUES
  ('FDAHIYEGRVI [PRKCD_Y64]', 0.913),
  ('TLNHQYDYTFH [CSNK1A1_Y292_D297H]', 1.01),
  ('NNIDYYKKTTN [FGFR2_Y657]', 1.02),
  ('ALAHKYLGGGG [HBB_Y146_H147L]', 1.01),
  ('SFVMVYEGNAR [INSR_Y1038_G1035V]', 0.973),
  ('VKMLPYTEVTR [GDI1_Y93_L92P]', 0.988),
  ('SDVCMYRKNIY [SYNE2_Y570]', 0.645),
  ('PHQTIYSALMI [FGF23_Y70]', 0.68),
  ('LGSWTYPKTVS [ROS1_Y144_T145P]', 0.813),
  ('RREGVYRNNID [PTEN_Y46_L42R]', 0.621);

---

- assay.system: c-Src SH2
- method.summary: SH2 binding enrichment of the phosphorylated peptide, bacterial display (enrichment ratio); higher = better substrate or ligand; peptides without Tyr show the background
Threshold check on SH2 binding enrichment: at or above 0.5 gives label 1, strictly below gives label 0.

INSERT INTO results (seq_string, class_name) VALUES
  ('HKDNNYISMWF [PAPOLG_Y432_V433I]', 'label 0'),
  ('FFDANCDGKEF [MAPRE2_Y162_Y162C_YF]', 'label 1'),
  ('RKGIRYLTSGL [PIGA_Y82]', 'label 0'),
  ('EKKDVYKTGEQ [CFH_Y1008_A1010T]', 'label 0'),
  ('DEDFLCREELA [POR_Y575_Y575C_YF]', 'label 1'),
  ('QGGRRYMMIVD [GAA_Y438]', 'label 1'),
  ('KDLPNYNWKSF [KISS1_Y112_N115K]', 'label 0'),
  ('KFEDVYVGICL [B3GALNT1_Y269]', 'label 0'),
  ('RFGRKYKKVRF [F8_Y442_I438F]', 'label 0'),
  ('DLRTGYSVPYG [TGM1_Y370_Y365D]', 'label 1'),
  ('VGTKRYRAPEV [ACVRL1_Y375_M376R]', 'label 1'),
  ('VKMLPYTEVTR [GDI1_Y93_L92P]', 'label 1'),
  ('GKFFQYDTWKQ [IGF2_Y116]', 'label 1'),
  ('NFADPYRQLQF [CTNND2_Y503_YF]', 'label 1'),
  ('NKYTTYLPWLP [C9orf24_Y126_R129W]', 'label 1'),
  ('HDRNTYEKYLG [TF_Y666]', 'label 1'),
  ('FVHDNYVIRRT [CPS1_Y1450]', 'label 0'),
  ('QAKRKYQEVSK [FES_Y156_A159V]', 'label 1'),
  ('DEEDFYQGSME [ASCC1_Y36]', 'label 0'),
  ('REGKIYEYNQV [ZNF665_Y162_H157R]', 'label 1'),
  ('SVVVPYEPREV [TP53_Y220_P223R]', 'label 0'),
  ('RGESFYQDRMN [RARS_Y338]', 'label 0'),
  ('KDHRDYKFQPR [SOX9_Y172_P170R_YF]', 'label 1'),
  ('YSSLGYPLPEG [ZSWIM4_Y87_P89L]', 'label 1'),
  ('FFIMMYTGSSV [DNAJC13_Y1131_N1135S]', 'label 0'),
  ('INASGYRIGPA [ACSM1_Y477]', 'label 0'),
  ('PLDAEYFTLQI [TP53_Y327_G325A]', 'label 0'),
  ('SVTYTYSPALN [TP53_Y126_C124Y]', 'label 0'),
  ('DHKRQYELLKL [KIF4B_Y684_R680H]', 'label 1'),
  ('VGTTAYVAPEA [IRAK4_Y354_M355V]', 'label 1'),
  ('FAKTQYPDIFA [CRX_Y63_V66I_YF]', 'label 0'),
  ('KKHFSYAWPFF [BRDT_Y291_YF]', 'label 1'),
  ('ASFSLYEPAKM [MKI67_Y340_P338S]', 'label 1'),
  ('VHNLDYFKQTT [FGFR3_Y647_K650Q_YF]', 'label 0'),
  ('PVQAASQKVVA [HBB_Y131_Y131S]', 'label 0'),
  ('RRFVFYFSFLL [PTEN_Y177_YF]', 'label 0'),
  ('CTTIHNNYMCN [TP53_Y234_Y234N]', 'label 1'),
  ('NTGLEYIKFTW [HRH1_Y386_D385E]', 'label 1'),
  ('DLDTDYGSGYP [RNASEH2A_Y206]', 'label 0'),
  ('LARDIYKNDYY [ROS1_Y2110]', 'label 1'),
  ('NPETCYQRLKK [TK2_Y190]', 'label 1'),
  ('MNLLGYRHVRS [CHST4_Y359]', 'label 1'),
  ('FADGVYLALEE [DUOX2_Y70_Q71L_YF]', 'label 1'),
  ('LNEQHYGGLTG [PGAM4_Y92_R90Q]', 'label 1'),
  ('GGSSPYSRRLA [CDK13_Y351_P356A]', 'label 1'),
  ('NKEAIYSGFIR [SMCHD1_Y283_YF]', 'label 0'),
  ('SSNTEYLSASD [INSR_Y999_P997T]', 'label 1'),
  ('PPLMLYNPTTY [EGFR_Y270]', 'label 1');
